- Tested on: MS2 coat protein
- test: apparent KD of MS2 coat protein, switch OFF state (with FMN for OFF switches, without FMN for ON switches); designed switch direction (-1 OFF switch, 1 ON switch): 1; higher = weaker reporter binding
- condition set: FMN input: 0 or 200 uM; Eterna round: R93 (includes R88 designs)
value kind: apparent KD of MS2 coat protein (µM)
Provide the reading as a plain figure in µM.

[Q] # apparent KD of MS2 coat protein lookup, item AAAAAACAUGAGGAUCACCCAUGUCAAAAGACAUGAGGAUAUGUACAGACUUCGGUCUGUACAGAAGGCAUGUAAA [SS1 - 1015]
[A] 0.273

Further cases:
[Q] Could you tell me which apparent KD of MS2 coat protein is on file for AUGGUGUAGGUACAGGAUAUGUUGCUCGUAACAUGAGGAUCACCCAUGUACCUAUGAGAUUAAAUGCAGAAGGGUGCACACCACG [Usbivece] ?
[A] 0.0355

[Q] What about this sequence? AUUAAACAUGAGGAUCACCCAUGUGGCAAAAGCACAGGAUAUAGGAGUCCGAGCAGACAACUAGAAGGGUGGAAAA [Rixelexe]
[A] 0.0537

[Q] Then this sequence: GUUAGGAAGAGAGAGGAUAUCCAAAGGAAAACAUGAGGAUCACCCAUGUAAAAGGUAGGAAAUUGGGAGAAGGCUCAAGAGAGAG [salish99-ss2-079]
[A] 0.0375

[Q] Proceed to CAGAAGGAGAGAGAGGAUAUCCAAAGGAAAACAUGAGGAUCACCCAUGUAAAAGGUAGGAAAUUGGGAGAAGGCUCAAGAGAGAG [salish99-ss2-110]
[A] 0.0333

[Q] And the next one, UAAUAAUAAACCAAGGAUAUGGAGUUUCCAACAUGAGGAUCACCCAUGUUUAGCAUGAAAUCGAACCAGAAGGUGGAGCCAAAUA [JR_SS002_Sub1004] ?
[A] 0.0425

----------
Listing: apparent KD of MS2 coat protein of selected sequences
- System: MS2 coat protein
- test: apparent KD of MS2 coat protein; designed switch direction (-1 OFF switch, 1 ON switch): -1; higher = weaker reporter binding
- condition set: Eterna round: R95; input ligand: none
Just the number in nM, nothing appended.

[Q] Would you kindly share the measured apparent KD of MS2 coat protein for AAUGAGCUAGGAUAUACAUGAGGAUCACCCAUGUAAAAUAGGUCAUGGAUGAACCACUGUAGAAGGAGCAGGGC [Ateseszave] (puzzle: Exclusion 3) ?
[A] 105

***
[Q] Which apparent KD of MS2 coat protein reading was recorded for the sequence UUGCUUUCUUAGUACUCUAUAAGUUUUUUGUUCGUUUUAACAUGAGGAUCACCCAUGUCUAGUGGAUCUGAUCGGGU [JL ViennaUCT Isreen mod 7] (puzzle: Sensor v3, turn-off variant 2) ?
[A] 163

[Q] Can you handle GAACUCGUGAAGGAUAUCCGUACCAAAGCGGCAGGAGAAGGUCACACAUGAGGAUCACCCAUGUGGUACCUCGU [Xeinbira] (puzzle: Exclusion 6) next?
[A] 25.1

[Q] GAGAGAUAGAUAGAGGACGACAUGAGGAUCACCCAUGUGAGGGAAAUGUUAAGGAGAAAGCUUUUUGCUCGUCUUAA [JR_SV3TOV1_Sub034] (puzzle: Sensor v3, turn-off variant 1) , same question.
[A] 152

[Q] Next sequence: GUGUAGGGAGGAUAUACAUGAGGAUCACCCAUGUGAAUAAGAUAGAAUAAGAUAAAGUGUAGAAGGCUUAGUGU [Excluse me!!! 24 - Jieux - Exclusion 3] (puzzle: Exclusion 3)
[A] 67.9

----------
- Test system: MS2 coat protein
- test: apparent KD of MS2 coat protein; designed switch direction (-1 OFF switch, 1 ON switch): -1; higher = weaker reporter binding
- condition set: Eterna round: R95; input ligand: none
The entries below are paired with their reported apparent KD of MS2 coat protein.
Return type: number; implicit unit nM.

Example sequences with recorded apparent KD of MS2 coat protein:
[Q] Value lookup for apparent KD of MS2 coat protein; key = GGUCGGCGAGGAUAUACAUGAGGAUCACCCAUGUGAUAGAGUGCACGCGUACGUGUAUGUAGAAGGCGCUGACG [JL-ex3-3.29 salish99 mod] (puzzle: Exclusion 3)
[A] 66

[Q] Same lookup for GAGGUGUUAGGAUAUCGGAGAUGGAGAAGAACGGGAUGAGCCGAGAAGGAACAUGAGGAUCACCCAUGUAGGUG [JR_Exclu4_Sub031] (puzzle: Exclusion 4) , please.
[A] 553

---
[Q] Record request: apparent KD of MS2 coat protein value, item GAUUAUGCGAGCUUUAGGGACAUGAGGAUCACCCAUGUUCGUCUUAUUGGUCUGGAUACGCUGACAUACCUAAAUCU [JMF 97] (puzzle: Sensor v3, turn-off variant 1)
[A] 20.9

[Q] Query UUAUAGAGAGGAUAUAUAAUGUGAAACAUGAGGAUCACCCAUGUAAUAUUAUGGAUGUAAAUAGAAGGCUCAAUUU [Mat - Exclusion 5 - JL mod - D14] (puzzle: Exclusion 5) next
[A] 32.4

[Q] Let us now turn to AGUAACCGUCACGAAAGUGAUGGUUACACAAGCAAAUGUACAUGAGGAUCACCCAUGUCCUCAUUUGCUCGUCUUAU [Sensor 3 - 45] (puzzle: Sensor v3, turn-off variant 2)
[A] 18.3

----------
- System: MS2 coat protein
- test: apparent KD of MS2 coat protein; designed switch direction (-1 OFF switch, 1 ON switch): -1; higher = weaker reporter binding
- condition set: Eterna round: R95; input ligand: none
# apparent KD of MS2 coat protein annotations
Dear colleague, please return just the value in nM, with no unit written.

# annotated cases, reported apparent KD of MS2 coat protein shown
[Q] // query apparent KD of MS2 coat protein value for entry GGUUGGCGAGGAUAUACAUGAGGAUCACCCAUGUGAGAGAUACUAGUGAGGUCGAUUAGUAGAAGGCGCUGACG [JL-ex3-2.01 salish99 mod] (puzzle: Exclusion 3)
[A] 32.2

[Q] Now give it for UGCUAGUCAGGAUAUACGAACAUGUCAAAAGACGUGAAGGGACAUGAGGAUCACCCAUGUAGAAGGGACUAGCU [salish99_ex2_r3_006] (puzzle: Exclusion 2) too.
[A] 27.1

[Q] What do you get for AAAAUACAUGAGGAUCACCCAUGUAAGGAUAUACGCCUAGUACCGAUGGUACUACAAAGUAGAAGGUACAUGGC [Arma] (puzzle: Exclusion 1) ?
[A] 14.1

[Q] Now the sequence UUUUAACAUGAGGAUCACCCAUGUGAGGAUAUCCUAUUUUUUUUUUUUUUUUUUUUUUGGAGAAGGCACAUUUU [My solution] (puzzle: Exclusion 1)
[A] 7.45

Further cases:
[Q] Return reported apparent KD of MS2 coat protein; argument: GCCAGAGCAGGAUAUUCAAUAUCACACAUGAGGAUCACCCAUGUCUGGCGAAAGCUAGAGGGAGAAGGGCUCUGGC [Mat - Exclusion 5 - Eli mod - D97] (puzzle: Exclusion 5)
[A] 55.2

----------
The sequences listed here are annotated with their apparent KD of MS2 coat protein.
- Tested on: MS2 coat protein
- test: apparent KD of MS2 coat protein; designed switch direction (-1 OFF switch, 1 ON switch): -1; higher = weaker reporter binding
- condition set: input ligand: FMN 200 uM
The response must be a number in nM with no trailing unit.

[Q] What value of apparent KD of MS2 coat protein has been reported for the following sequence? CUAGAGUGAGGAUAUACGAGAUCGAAAGAUCGGCGAUCCCUACAUGAGGAUCACCCAUGUAGAAGGCACUCUAG [Mod 12 - Jieux - Exclusion 2] (Eterna round: R97, puzzle: Exclusion 2)
[A] 115

[Q] Now the sequence AAAAGGUCAGGAUAUGCUUGGCGGAUUCUGGUAUCCAAAUGACAUGAGGAUCACCCAUGUAGAAGGGACAUCAG [Maanlesoge] (Eterna round: R97, puzzle: Exclusion 2)
[A] 21.8

# evaluate next
[Q] Data request, read-out apparent KD of MS2 coat protein, for ACUUAUUGAGGAUAUACAGAUUAUUACAUGAGGAUCACCCAUGUUCUUCAAUGUAUAUAUGUAGAAGGCAGAGGAU [Mat - Exclusion 5 - JL Mod - D13] (Eterna round: R97, puzzle: Exclusion 5)
[A] 221

----------
Measured apparent KD of MS2 coat protein of individual entries
- Tested on: MS2 coat protein
- test: apparent KD of MS2 coat protein; designed switch direction (-1 OFF switch, 1 ON switch): -1; higher = weaker reporter binding
- condition set: input ligand: FMN 200 uM
Respond numerically; units are nM and should not be typed.

[Q] Fill in: apparent KD of MS2 coat protein of AAUUUGCAAGCGAGAUCCCACAUGAGGAUCACCCAUGUGCUCGUCUUAUAAGGUACUGUGACAAUAGUCACGGUACC [Mat - Sensor, turn-off var - Eli Mod - D94] (Eterna round: R97, puzzle: Sensor, turn-off variant 1) is ___
[A] 16.7

We now examine a further sequence.
[Q] So what's the measured apparent KD of MS2 coat protein for this one? AAUACAAGCUAUUGAUCCCACAUGAGGAUCACCCAUGUUCCUGGCCGUGAGGCUAGGUAAACAAUAGCUCGUCUUAU [Sensor-V1 #42] (Eterna round: R97, puzzle: Sensor, turn-off variant 1)
[A] 91.2

# credit: the supplement of paper PMC9170038
